These measurements were taken from ChEMBL document CHEMBL5500349.

Assay: Cytotoxicity against mouse HT-22 cells assessed as cell viability at 100 uM incubated for 48 to 72 hrs by MTT assay
Assay type: toxicity, cell-based
Settings: time 48-72 hrs, read-out: Activity
measuredParameter: viability at 100 µM (%)
Reply with just the number (in %).

Input Cc1ncsc1-c1ccc([C@H](C)NC(=O)[C@@H]2C[C@@H](O)CN2C(=O)[C@@H](NC(=O)CCCc2cn(CCOCCNC(=O)[C@H](C)CC(=O)C[C@@H](C)[C@H]3C[C@H](O)[C@@]4(C)C5=C(C(=O)C[C@]34C)[C@@]3(C)CCC(=O)C(C)(C)[C@@H]3C[C@@H]5O)nn2)C(C)(C)C)cc1 . Output viability at 100 µM: 97

Input C[C@H](CC(=O)C[C@@H](C)[C@H]1C[C@H](O)[C@@]2(C)C3=C(C(=O)C[C@]12C)[C@@]1(C)CCC(=O)C(C)(C)[C@@H]1C[C@@H]3O)C(=O)NCc1cn(CCOCCOCCOCCOCCNc2cccc3c2C(=O)N(C2CCC(=O)NC2=O)C3=O)nn1 (some centres not stated) . Output viability at 100 µM: 98.3

Further cases:
Input C[C@H](CC(=O)C[C@@H](C)[C@H]1C[C@H](O)[C@@]2(C)C3=C(C(=O)C[C@]12C)[C@@]1(C)CCC(=O)C(C)(C)[C@@H]1C[C@@H]3O)C(=O)NCCOCCOCCn1cc(CNc2cccc3c2C(=O)N(C2CCC(=O)NC2=O)C3=O)nn1 (some centres not stated) . Output viability at 100 µM: 98.7

Input C[C@H](CC(=O)C[C@@H](C)[C@H]1C[C@H](O)[C@@]2(C)C3=C(C(=O)C[C@]12C)[C@@]1(C)CCC(=O)C(C)(C)[C@@H]1C[C@@H]3O)C(=O)NCc1cn(CCOCCOCCOCCNc2cccc3c2C(=O)N(C2CCC(=O)NC2=O)C3=O)nn1 (some centres not stated) . Output viability at 100 µM: 78.2

Input C[C@H](CC(=O)C[C@@H](C)[C@H]1C[C@H](O)[C@@]2(C)C3=C(C(=O)C[C@]12C)[C@@]1(C)CCC(=O)C(C)(C)[C@@H]1C[C@@H]3O)C(=O)NCCOCCOCCOCCn1cc(CNc2cccc3c2C(=O)N(C2CCC(=O)NC2=O)C3=O)nn1 (some centres not stated) . Output viability at 100 µM: 97.2

Input Cc1ncsc1-c1ccc([C@H](C)NC(=O)[C@@H]2C[C@@H](O)CN2C(=O)[C@@H](NC(=O)CCCc2cn(CCOCCOCCOCCOCCNC(=O)[C@H](C)CC(=O)C[C@@H](C)[C@H]3C[C@H](O)[C@@]4(C)C5=C(C(=O)C[C@]34C)[C@@]3(C)CCC(=O)C(C)(C)[C@@H]3C[C@@H]5O)nn2)C(C)(C)C)cc1 . Output viability at 100 µM: 96.9

Input Cc1ncsc1-c1ccc([C@H](C)NC(=O)[C@@H]2C[C@@H](O)CN2C(=O)[C@@H](NC(=O)CCCCc2cn(CCOCCOCCOCCNC(=O)[C@H](C)CC(=O)C[C@@H](C)[C@H]3C[C@H](O)[C@@]4(C)C5=C(C(=O)C[C@]34C)[C@@]3(C)CCC(=O)C(C)(C)[C@@H]3C[C@@H]5O)nn2)C(C)(C)C)cc1 . Output viability at 100 µM: 91.8

* * *

Tested on: MCF7
Test: Antiproliferative activity against human MCF7 cells assessed as cell viability at 100 uM incubated for 48 to 72 hrs by MTT assay
Format: functional
Conditions: time 48-72 hrs, read-out: Activity
measuredParameter: viability at 100 µM (%)
Reply with just the number (in %).

Input Cc1ncsc1-c1ccc([C@H](C)NC(=O)[C@@H]2C[C@@H](O)CN2C(=O)[C@@H](NC(=O)CCCCc2cn(CCOCCNC(=O)[C@H](C)CC(=O)C[C@@H](C)[C@H]3C[C@H](O)[C@@]4(C)C5=C(C(=O)C[C@]34C)[C@@]3(C)CCC(=O)C(C)(C)[C@@H]3C[C@@H]5O)nn2)C(C)(C)C)cc1 . Output viability at 100 µM: 81.9

Here is the next item to consider.
Input C[C@H](CC(=O)C[C@@H](C)[C@H]1C[C@H](O)[C@@]2(C)C3=C(C(=O)C[C@]12C)[C@@]1(C)CCC(=O)C(C)(C)[C@@H]1C[C@@H]3O)C(=O)O [GANODERIC ACID A] . Output viability at 100 µM: 84.7

* * *

Test system: MCF7
Experiment: Antiproliferative activity against human MCF7 cells assessed as cell viability at 100 uM incubated for 48 to 72 hrs by MTT assay
Type: functional
Conditions: time 48-72 hrs, read-out: Activity
measuredParameter: viability at 100 µM (%)
Reply with just the number (in %).

Consider the worked cases shown below.
Tested on MCF7, the item C[C@H](CC(=O)C[C@@H](C)[C@H]1C[C@H](O)[C@@]2(C)C3=C(C(=O)C[C@]12C)[C@@]1(C)CCC(=O)C(C)(C)[C@@H]1C[C@@H]3O)C(=O)NCCOCCn1cc(CNc2cccc3c2C(=O)N(C2CCC(=O)NC2=O)C3=O)nn1 (some centres undefined) showed viability at 100 µM equal to 81.8

Tested on MCF7, the item C[C@H](CC(=O)C[C@@H](C)[C@H]1C[C@H](O)[C@@]2(C)C3=C(C(=O)C[C@]12C)[C@@]1(C)CCC(=O)C(C)(C)[C@@H]1C[C@@H]3O)C(=O)NCc1cn(CCCNc2cccc3c2C(=O)N(C2CCC(=O)NC2=O)C3=O)nn1 (some centres undefined) showed viability at 100 µM equal to 65.9

Tested on MCF7, the item C[C@H](CC(=O)C[C@@H](C)[C@H]1C[C@H](O)[C@@]2(C)C3=C(C(=O)C[C@]12C)[C@@]1(C)CCC(=O)C(C)(C)[C@@H]1C[C@@H]3O)C(=O)NCc1cn(CCOCCOCCNc2cccc3c2C(=O)N(C2CCC(=O)NC2=O)C3=O)nn1 (some centres undefined) showed viability at 100 µM equal to 71.2

Tested on MCF7, the item Cc1ncsc1-c1ccc([C@H](C)NC(=O)[C@@H]2C[C@@H](O)CN2C(=O)[C@@H](NC(=O)CCCCc2cn(CCOCCOCCNC(=O)[C@H](C)CC(=O)C[C@@H](C)[C@H]3C[C@H](O)[C@@]4(C)C5=C(C(=O)C[C@]34C)[C@@]3(C)CCC(=O)C(C)(C)[C@@H]3C[C@@H]5O)nn2)C(C)(C)C)cc1 showed viability at 100 µM equal to 41.4

Tested on MCF7, the item Cc1ncsc1-c1ccc([C@H](C)NC(=O)[C@@H]2C[C@@H](O)CN2C(=O)[C@@H](NC(=O)CCCCc2cn(CCCNC(=O)[C@H](C)CC(=O)C[C@@H](C)[C@H]3C[C@H](O)[C@@]4(C)C5=C(C(=O)C[C@]34C)[C@@]3(C)CCC(=O)C(C)(C)[C@@H]3C[C@@H]5O)nn2)C(C)(C)C)cc1 showed viability at 100 µM equal to 57.9

Further cases:
Tested on MCF7, the item Cc1ncsc1-c1ccc([C@H](C)NC(=O)[C@@H]2C[C@@H](O)CN2C(=O)[C@@H](NC(=O)CCCCc2cn(CCOCCOCCOCCOCCNC(=O)[C@H](C)CC(=O)C[C@@H](C)[C@H]3C[C@H](O)[C@@]4(C)C5=C(C(=O)C[C@]34C)[C@@]3(C)CCC(=O)C(C)(C)[C@@H]3C[C@@H]5O)nn2)C(C)(C)C)cc1 showed viability at 100 µM equal to 30.6

Tested on MCF7, the item Cc1ncsc1-c1ccc([C@H](C)NC(=O)[C@@H]2C[C@@H](O)CN2C(=O)[C@@H](NC(=O)CCCc2cn(CCOCCOCCNC(=O)[C@H](C)CC(=O)C[C@@H](C)[C@H]3C[C@H](O)[C@@]4(C)C5=C(C(=O)C[C@]34C)[C@@]3(C)CCC(=O)C(C)(C)[C@@H]3C[C@@H]5O)nn2)C(C)(C)C)cc1 showed viability at 100 µM equal to 40.8

Tested on MCF7, the item Cc1ncsc1-c1ccc([C@H](C)NC(=O)[C@@H]2C[C@@H](O)CN2C(=O)[C@@H](NC(=O)CCCCc2cn(CCOCCOCCOCCNC(=O)[C@H](C)CC(=O)C[C@@H](C)[C@H]3C[C@H](O)[C@@]4(C)C5=C(C(=O)C[C@]34C)[C@@]3(C)CCC(=O)C(C)(C)[C@@H]3C[C@@H]5O)nn2)C(C)(C)C)cc1 showed viability at 100 µM equal to 24.9

Tested on MCF7, the item C[C@H](CC(=O)C[C@@H](C)[C@H]1C[C@H](O)[C@@]2(C)C3=C(C(=O)C[C@]12C)[C@@]1(C)CCC(=O)C(C)(C)[C@@H]1C[C@@H]3O)C(=O)NCc1cn(CCOCCNc2cccc3c2C(=O)N(C2CCC(=O)NC2=O)C3=O)nn1 (some centres undefined) showed viability at 100 µM equal to 60.7

Tested on MCF7, the item Cc1ncsc1-c1ccc([C@H](C)NC(=O)[C@@H]2C[C@@H](O)CN2C(=O)[C@@H](NC(=O)CCCc2cn(CCCNC(=O)[C@H](C)CC(=O)C[C@@H](C)[C@H]3C[C@H](O)[C@@]4(C)C5=C(C(=O)C[C@]34C)[C@@]3(C)CCC(=O)C(C)(C)[C@@H]3C[C@@H]5O)nn2)C(C)(C)C)cc1 showed viability at 100 µM equal to 87

Tested on MCF7, the item C[C@H](CC(=O)C[C@@H](C)[C@H]1C[C@H](O)[C@@]2(C)C3=C(C(=O)C[C@]12C)[C@@]1(C)CCC(=O)C(C)(C)[C@@H]1C[C@@H]3O)C(=O)NCc1cn(CCOCCOCCOCCOCCNc2cccc3c2C(=O)N(C2CCC(=O)NC2=O)C3=O)nn1 (some centres undefined) showed viability at 100 µM equal to 57.2
